// reported pIC50 per item
Target: UniProt:P10721
Sequence (P10721 26-976): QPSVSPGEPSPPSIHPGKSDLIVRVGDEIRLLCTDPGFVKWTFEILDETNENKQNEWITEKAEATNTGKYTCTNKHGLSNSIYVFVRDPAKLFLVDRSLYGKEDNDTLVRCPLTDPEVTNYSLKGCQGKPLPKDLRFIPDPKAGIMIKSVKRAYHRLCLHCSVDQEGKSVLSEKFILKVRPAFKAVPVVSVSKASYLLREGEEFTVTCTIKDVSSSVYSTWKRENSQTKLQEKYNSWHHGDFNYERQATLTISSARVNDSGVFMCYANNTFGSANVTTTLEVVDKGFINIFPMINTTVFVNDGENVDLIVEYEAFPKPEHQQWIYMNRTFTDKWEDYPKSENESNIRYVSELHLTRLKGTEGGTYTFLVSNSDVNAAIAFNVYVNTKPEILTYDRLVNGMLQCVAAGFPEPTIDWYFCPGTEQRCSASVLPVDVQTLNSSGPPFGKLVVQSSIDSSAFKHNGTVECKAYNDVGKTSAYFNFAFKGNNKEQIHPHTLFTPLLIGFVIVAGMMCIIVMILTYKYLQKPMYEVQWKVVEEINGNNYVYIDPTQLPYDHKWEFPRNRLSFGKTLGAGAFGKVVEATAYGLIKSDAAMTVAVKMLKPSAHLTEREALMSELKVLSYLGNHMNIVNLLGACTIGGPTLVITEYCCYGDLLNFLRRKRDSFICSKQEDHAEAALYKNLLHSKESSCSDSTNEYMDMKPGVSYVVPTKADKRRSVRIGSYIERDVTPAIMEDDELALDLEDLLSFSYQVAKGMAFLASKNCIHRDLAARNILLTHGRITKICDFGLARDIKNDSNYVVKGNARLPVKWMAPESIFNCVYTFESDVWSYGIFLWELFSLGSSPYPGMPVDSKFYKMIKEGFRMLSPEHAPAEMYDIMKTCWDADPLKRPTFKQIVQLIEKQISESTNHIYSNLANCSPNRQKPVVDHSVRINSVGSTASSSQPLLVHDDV
Assay: Inhibition of c-Kit kinase activity (HTRF KinEASE-TK)
Format: biochemical
Conditions: biochemical
pIC50: −log10 of the molar value.

COMPOUND	pIC50
Cc1cc(F)c(C(=O)Nc2ccc(CC3CC3)cn2)cc1NC(=O)c1cnc(N)s1 [Example 7]	> 7.00
Cc1cc(F)c(C(=O)Nc2ccc(CC(F)(F)F)cn2)cc1NC(=O)c1cnc(N)s1 [Example 11]	> 7.00
Cc1ncc(C(=O)Nc2cc(C(=O)Nc3cnc(OCC(C)(F)F)cn3)c(F)cc2C)s1 [Example 4]	> 7.00
COCc1ccc(NC(=O)c2cc(NC(=O)c3cnc(N)s3)c(C)cc2F)nc1 [Example 10]	> 7.00
Cc1cc(F)c(C(=O)Nc2ccc(OC(F)(F)F)cn2)cc1NC(=O)c1cnc(N)s1 [Example 8]	> 7.00
Cc1cc(F)c(C(=O)Nc2ccc(OC(F)F)cn2)cc1NC(=O)c1cnc(N)s1 [Example 9]	> 7.00
Cc1ncc(C(=O)Nc2cc(C(=O)Nc3ccc(OC4CC4)cn3)c(F)cc2C)s1 [Example 2]	> 7.00
Cc1cc(F)c(C(=O)Nc2ccc(OC3CC3)cn2)cc1NC(=O)c1cnc(NC(=O)N2CCC2)s1 [Example 6]	> 7.00
Cc1ncc(C(=O)Nc2cc(C(=O)Nc3ccc(C4CC4)cn3)c(F)cc2C)s1 [Example 3]	> 7.00
Cc1ncc(C(=O)Nc2cc(C(=O)Nc3ccc(CC4CC4)cn3)c(F)cc2C)s1 [Example 5]	> 7.00
Cc1ncc(C(=O)Nc2cc(C(=O)Nc3ccc(CC(F)(F)F)cn3)c(F)cc2C)s1 [Example 1]	> 7.00

====

// reported IC50 per item
Target: CSF1R (Homo sapiens (Human))
Sequence (P07333 20-972): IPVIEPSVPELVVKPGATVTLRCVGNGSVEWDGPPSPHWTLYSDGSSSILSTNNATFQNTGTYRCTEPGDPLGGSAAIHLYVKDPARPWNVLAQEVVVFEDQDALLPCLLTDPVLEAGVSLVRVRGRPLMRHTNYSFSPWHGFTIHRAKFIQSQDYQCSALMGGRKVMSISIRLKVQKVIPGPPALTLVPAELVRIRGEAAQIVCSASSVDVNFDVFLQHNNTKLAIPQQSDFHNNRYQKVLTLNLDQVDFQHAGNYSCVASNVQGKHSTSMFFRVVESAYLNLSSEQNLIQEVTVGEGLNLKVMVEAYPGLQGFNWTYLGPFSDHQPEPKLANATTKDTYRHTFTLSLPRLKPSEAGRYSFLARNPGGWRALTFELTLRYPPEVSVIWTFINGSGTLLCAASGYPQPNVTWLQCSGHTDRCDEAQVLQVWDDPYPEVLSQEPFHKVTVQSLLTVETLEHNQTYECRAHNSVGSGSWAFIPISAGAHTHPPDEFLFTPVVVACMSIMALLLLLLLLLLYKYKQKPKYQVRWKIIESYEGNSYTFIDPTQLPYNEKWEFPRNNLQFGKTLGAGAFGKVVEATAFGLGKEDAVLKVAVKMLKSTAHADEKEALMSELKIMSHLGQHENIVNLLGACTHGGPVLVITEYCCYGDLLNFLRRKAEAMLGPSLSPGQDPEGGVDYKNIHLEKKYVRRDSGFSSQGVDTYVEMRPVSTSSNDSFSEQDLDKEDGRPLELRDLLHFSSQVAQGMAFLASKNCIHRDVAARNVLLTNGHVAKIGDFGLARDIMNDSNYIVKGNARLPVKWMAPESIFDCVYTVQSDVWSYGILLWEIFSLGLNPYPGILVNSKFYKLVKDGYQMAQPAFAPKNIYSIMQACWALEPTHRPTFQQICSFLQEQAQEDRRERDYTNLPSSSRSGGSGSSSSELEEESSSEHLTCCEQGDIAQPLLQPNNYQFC
Assay: Inhibition of CSF1R kinase activity (HTRF KinEASE-TK)
Details: biochemical, HTRF KinEASE-TK

COMPOUND	IC50
Cc1cc(F)c(C(=O)Nc2ccc(C3(C#N)CC3)cn2)cc1NC(=O)c1cnc(N)s1 [Example 118]	100 to 1000 nM
Cc1ncc(C(=O)Nc2cc(C(=O)Nc3ccnc(OC(F)F)c3)c(F)cc2C)s1 [Example 21]	> 1000 nM
Cc1cc(F)c(C(=O)Nc2cccnc2C)cc1NC(=O)c1cnc(N)s1 [Example 250]	> 1000 nM
Cc1cc(F)c(C(=O)Nc2ccc(C(C)(C)O)cn2)cc1NC(=O)c1cnc(N)s1 [Example 113]	100 to 1000 nM
Cc1cc(F)c(C(=O)Nc2ccn(C3CC(F)(F)C3)n2)cc1NC(=O)c1cnc(N)s1 [Example 139]	> 1000 nM
Cc1cc(F)c(C(=O)Nc2ccc(O[C@H]3CCOC3)cn2)cc1NC(=O)c1cnc(N)s1 [Example 117]	> 1000 nM
Cc1cc(F)c(C(=O)Nc2ccc(OC3CC3)cn2)cc1NC(=O)c1cnc(NCC(F)F)s1 [Example 235]	> 1000 nM
Cc1cc(F)c(C(=O)Nc2ccc(OC3CC3)c(C)n2)cc1NC(=O)c1cnc(N)s1 [Example 152]	> 1000 nM

====

// reported pIC50 per item
Target: UniProtKB P09619
Sequence (P09619 33-1106): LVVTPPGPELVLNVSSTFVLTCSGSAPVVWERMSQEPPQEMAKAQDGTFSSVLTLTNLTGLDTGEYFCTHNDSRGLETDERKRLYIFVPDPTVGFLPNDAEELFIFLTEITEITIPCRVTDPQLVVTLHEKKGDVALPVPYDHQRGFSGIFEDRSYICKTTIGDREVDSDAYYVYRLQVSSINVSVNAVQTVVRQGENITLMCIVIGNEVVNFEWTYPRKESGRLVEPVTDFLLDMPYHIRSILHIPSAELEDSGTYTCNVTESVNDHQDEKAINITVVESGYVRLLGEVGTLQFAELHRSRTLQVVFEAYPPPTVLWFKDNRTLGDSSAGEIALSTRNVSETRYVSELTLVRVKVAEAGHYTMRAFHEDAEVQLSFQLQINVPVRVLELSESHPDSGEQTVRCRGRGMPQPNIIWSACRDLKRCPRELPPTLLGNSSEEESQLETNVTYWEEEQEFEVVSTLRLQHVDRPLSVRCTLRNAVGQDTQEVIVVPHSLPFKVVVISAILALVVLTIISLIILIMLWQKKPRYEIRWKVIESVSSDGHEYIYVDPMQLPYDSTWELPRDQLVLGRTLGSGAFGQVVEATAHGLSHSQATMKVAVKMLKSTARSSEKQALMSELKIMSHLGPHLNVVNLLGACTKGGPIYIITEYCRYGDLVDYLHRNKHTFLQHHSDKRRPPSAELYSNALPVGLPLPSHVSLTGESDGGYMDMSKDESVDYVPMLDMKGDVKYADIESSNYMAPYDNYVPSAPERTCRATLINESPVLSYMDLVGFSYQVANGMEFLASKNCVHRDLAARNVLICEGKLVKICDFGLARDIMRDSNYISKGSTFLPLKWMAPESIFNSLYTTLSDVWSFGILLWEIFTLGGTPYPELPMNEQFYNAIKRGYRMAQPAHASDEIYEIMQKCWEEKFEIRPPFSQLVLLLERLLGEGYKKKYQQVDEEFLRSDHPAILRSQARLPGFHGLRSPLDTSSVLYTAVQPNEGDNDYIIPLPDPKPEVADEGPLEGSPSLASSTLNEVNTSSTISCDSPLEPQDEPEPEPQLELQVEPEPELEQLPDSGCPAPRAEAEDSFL
Assay: Inhibition of PDGFRβ kinase activity (HTRF KinEASE-TK)
Conditions: biochemical, HTRF KinEASE-TK
pIC50: −log10 of the molar value.
REPORTED METRIC: pIC50

SMILES DATA	TARGET DESC	ASSAY VALUE
Cc1cc(F)c(C(=O)Nc2ccn(C3CCOCC3)n2)cc1NC(=O)c1cnc(N)s1	UniProtKB P09619	< 6.00
COC[C@H]1CCCN1c1cnc(NC(=O)c2cc(NC(=O)c3cnc(C)s3)c(C)cc2F)cn1	UniProtKB P09619	< 6.00
Nc1ncc(C(=O)Nc2cc(C(=O)Nc3cnc(C4CC4)cn3)c(F)cc2Cl)s1	UniProtKB P09619	> 7.00
Cc1cc(F)c(C(=O)N[C@H]2C[C@H]2F)cc1NC(=O)c1cnc(N)s1	UniProtKB P09619	< 6.00
Cc1cc(F)c(C(=O)Nc2cc3n(n2)CCOC3)cc1NC(=O)c1cnc(N)s1	UniProtKB P09619	6.00 to 7.00
Cc1cc(F)c(C(=O)NCC2(F)CC2)cc1NC(=O)c1cnc(NC(=O)N2CCC2)s1	UniProtKB P09619	6.00 to 7.00
Cc1cc(F)c(C(=O)Nc2ccc(OC3CC3)cn2)cc1NC(=O)c1cnc(NC(=O)[C@H]2CCOC2)s1	UniProtKB P09619	< 6.00
Cc1ncc(C(=O)Nc2cc(C(=O)Nc3ccc(OCC4CC4)cn3)c(F)cc2C)s1	UniProtKB P09619	< 6.00
Cc1cc(F)c(C(=O)Nc2ccc(OC3CC3)cn2)cc1NC(=O)c1cnc(N)s1	UniProtKB P09619	6.00 to 7.00
Cc1cc(F)c(C(=O)Nc2ccc(S(C)(=O)=O)cn2)cc1NC(=O)c1cnc(N)s1	UniProtKB P09619	6.00 to 7.00
Cc1ncc(C(=O)Nc2cc(C(=O)NCc3ccc(OC(F)(F)F)cc3F)c(F)cc2C)s1	UniProtKB P09619	< 6.00
Cc1cc(F)c(C(=O)Nc2ccc(OC3CC3)nn2)cc1NC(=O)c1cnc(N)s1	UniProtKB P09619	6.00 to 7.00
Cc1cc(F)c(C(=O)Nc2ccn([C@@H]3CCOC3)n2)cc1NC(=O)c1cnc(N)s1	UniProtKB P09619	6.00 to 7.00
Cc1ncc(C(=O)Nc2cc(C(=O)Nc3ccc(CC(F)F)cn3)c(F)cc2C)s1	UniProtKB P09619	< 6.00
Cc1ncc(C(=O)Nc2cc(C(=O)Nc3ccc(C(F)(F)F)cn3)c(F)cc2C)s1	UniProtKB P09619	< 6.00
Cc1ncc(C(=O)Nc2cc(C(=O)NCCCN3CCOCC3)c(F)cc2C)s1	UniProtKB P09619	< 6.00
Nc1ncc(C(=O)Nc2cc(C(=O)Nc3ccc(OC4CC4)cn3)c(F)cc2F)s1	UniProtKB P09619	< 6.00
Cc1cc(F)c(C(=O)Nc2cc3n(n2)CCN(C)C3)cc1NC(=O)c1cnc(N)s1	UniProtKB P09619	< 6.00
CO[C@H]1C[C@@H](n2ccc(NC(=O)c3cc(NC(=O)c4cnc(N)s4)c(C)cc3F)n2)C1	UniProtKB P09619	< 6.00
Cc1cc(F)c(C(=O)Nc2ccn(C(F)F)n2)cc1NC(=O)c1cnc(N)s1	UniProtKB P09619	< 6.00
Cc1cc(F)c(C(=O)Nc2ccc(OC(C)C)cn2)cc1NC(=O)c1cnc(N)s1	UniProtKB P09619	6.00 to 7.00
Cc1cc(F)c(C(=O)N[C@H]2C[C@@H]2F)cc1NC(=O)c1cnc(N)s1	UniProtKB P09619	< 6.00
CO[C@H]1C[C@H](n2ccc(NC(=O)c3cc(NC(=O)c4cnc(N)s4)c(C)cc3F)n2)C1	UniProtKB P09619	< 6.00
Cc1ncc(C(=O)Nc2cc(C(=O)Nc3cnc(N4CCC[C@H]4C(F)(F)F)cn3)c(F)cc2C)s1	UniProtKB P09619	< 6.00
Cc1ncc(C(=O)Nc2cc(C(=O)Nc3cnc(OCC4CC4)cn3)c(F)cc2C)s1	UniProtKB P09619	< 6.00
Nc1ncc(C(=O)Nc2cc(C(=O)Nc3ccc(C4CC4)nn3)c(F)cc2Cl)s1	UniProtKB P09619	6.00 to 7.00
Cc1cc(F)c(C(=O)N[C@H]2C[C@@H](C#N)C2)cc1NC(=O)c1cnc(N)s1	UniProtKB P09619	< 6.00
CC(C)Oc1ccc(NC(=O)c2cc(NC(=O)c3cnc(N)s3)c(Cl)cc2F)nc1	UniProtKB P09619	< 6.00
Cc1ncc(C(=O)Nc2cc(C(=O)Nc3cnc(N4CC(O)C4)cn3)c(F)cc2C)s1	UniProtKB P09619	< 6.00
CO[C@@H](C)c1ccc(NC(=O)c2cc(NC(=O)c3cnc(N)s3)c(C)cc2F)nc1	UniProtKB P09619	6.00 to 7.00
Cc1ncc(C(=O)Nc2cc(C(=O)Nc3ccc(OC(F)F)cn3)c(F)cc2C)s1	UniProtKB P09619	< 6.00
Cc1cc(F)c(C(=O)Nc2ccc(OC3(C)CC3)cn2)cc1NC(=O)c1cnc(N)s1	UniProtKB P09619	> 7.00
Cc1cc(F)c(C(=O)Nc2ccn(C(C)C)n2)cc1NC(=O)c1cnc(N)s1	UniProtKB P09619	6.00 to 7.00

====

// reported Percent of total metabolism via bioactivation, Monkey hepatocytes per item
Test system: cynomolgus monkey hepatocytes
Assay: Bioactivation assessment in monkey hepatocytes
Type: in vitro ADME
Details: 5 μM, 4 hours
REPORTED METRIC: Percent of total metabolism via bioactivation, Monkey hepatocytes

COMPOUND	ASSAY VALUE
Cc1ncc(C(=O)Nc2cc(C(=O)Nc3ccc(CC(F)(F)F)cn3)c(F)cc2C)s1	4%
Cc1ccc(-c2noc([C@H]3C[C@@H]3F)n2)cc1NC(=O)c1cnc2ccccn12 [labuxtinib, reference compound]	31%
Cc1ncc(C(=O)Nc2cc(C(=O)Nc3ccc(CC4CC4)cn3)c(F)cc2C)s1	<1%
Cc1ncc(C(=O)Nc2cc(C(=O)Nc3ccc(C4CC4)cn3)c(F)cc2C)s1	2%
